Assay: Pharmacokinetics in MDA‐MB‐436 xenograft‐bearing mice
Details: female, Balb/cA nude, mouse, in vivo, po, 3 mg/kg
Parameter: Tmax

O=C(c1cc(Cc2n[nH]c(=O)c3ccccc23)ccc1F)N1CCn2nc(C(F)(F)F)nc2C1 has a reported Tmax of ≤ 2 h

----------
Assay: Pharmacokinetics in female SD rats
Type: in vivo
Conditions: rat, plasma, po, 4 mg/kg
Parameter: AUC(0-t) (ng·h/mL)
Note: unit ng·h/mL is implicit; provide only the numeric part.

O=C(c1cc(Cc2n[nH]c(=O)c3ccccc23)ccc1F)N1CCn2nc(C(F)(F)F)nc2C1 [Fluzoparib] has a reported AUC(0-t) of 3290

----------
Experiment: Pharmacokinetics in MDA‐MB‐436 xenograft‐bearing mice
Conditions: female, Balb/cA nude, mouse, in vivo, po, 0.3 mg/kg
Parameter: Kp
Quick one: just the number, no unit, thanks!

O=C(c1cc(Cc2n[nH]c(=O)c3ccccc23)ccc1F)N1CCn2nc(C(F)(F)F)nc2C1 has a reported Kp of 25

----------
Assay: Pharmacokinetics in MDA‐MB‐436 xenograft‐bearing mice
Settings: female, Balb/cA nude, mouse, in vivo, po, 0.3 mg/kg
Parameter: concentration at 24 h (ng/g)
Note: unit ng/g is implicit; provide only the numeric part.

O=C(c1cc(Cc2n[nH]c(=O)c3ccccc23)ccc1F)N1CCn2nc(C(F)(F)F)nc2C1 has a reported concentration at 24 h of 57.9

----------
Experiment: Pharmacokinetics in female SD rats
Assay type: in vivo
Settings: rat, plasma, oral, 4 mg/kg
Parameter: bioavailability
Please answer using a numeric value trailed by its unit.

O=C(c1cc(Cc2n[nH]c(=O)c3ccccc23)ccc1F)N1CCn2nc(C(F)(F)F)nc2C1 [Fluzoparib] has a reported bioavailability of 35.8%

----------
Test: Pharmacokinetics in MDA‐MB‐436 xenograft‐bearing mice
Conditions: female, Balb/cA nude, mouse, in vivo, po, 3 mg/kg
Parameter: concentration at 24 h (ng/g)
Note: unit ng/g is implicit; provide only the numeric part.

O=C(c1cc(Cc2n[nH]c(=O)c3ccccc23)ccc1F)N1CCn2nc(C(F)(F)F)nc2C1 has a reported concentration at 24 h of 85.6

----------
Assay: Pharmacokinetics in MDA‐MB‐436 xenograft‐bearing mice
Conditions: female, Balb/cA nude, mouse, in vivo, po, 1 mg/kg
Parameter: concentration at 24 h (ng/g)
Note: unit ng/g is implicit; provide only the numeric part.

O=C(c1cc(Cc2n[nH]c(=O)c3ccccc23)ccc1F)N1CCn2nc(C(F)(F)F)nc2C1 has a reported concentration at 24 h of 39.3

----------
Assay: Pharmacokinetics in MDA‐MB‐436 xenograft‐bearing mice
Details: female, Balb/cA nude, mouse, in vivo, po, 3 mg/kg
Parameter: Kp
Quick one: just the number, no unit, thanks!

O=C(c1cc(Cc2n[nH]c(=O)c3ccccc23)ccc1F)N1CCn2nc(C(F)(F)F)nc2C1 [Fluzoparib] has a reported Kp of 6.7
